# Assay Method Text: qHTS assay to identify small molecule agonists of the estrogen receptor alpha (ER-alpha) signaling pathway in the presence of an antagonist - cell viability counter screen (AID 1259386);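 note: cells exposed to compounds for 22 h at 37 °C before the viability read; nearly all actives have a fitted effect of over 30% in size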
# Assay Conditions: VM7Luc4E2 viability, CellTiter-Fluor fluorescence, 22 h; series mostly up to 92.4 µM
Results filed as inconclusive are left out. The source made the active and inactive calls. Calls come from the whole dose curve; as a rule, active = well fitted cell-killing curve with a large enough effect in the repeat runs; inconclusive = weak or mixed curves, or effect the other way; inactive = no such curve, though single readings can be large or run the other way.
Reported Metric: outcome

- Compound: "O=c1[nH]cnc2[nH]ncc12"
  outcome: "inactive"
- Compound: "O=S(=O)(O)c1ccccc1"
  outcome: "inactive"
- Compound: "c1ccc2c(c1)Cc1ccccc1-2"
  outcome: "inactive"
- Compound: "CCCCOC(=O)c1ccc(N)cc1"
  outcome: "inactive"
- Compound: "CC(CCl)OP(=O)(OC(C)CCl)OC(C)CCl (stereo not drawn)"
  outcome: "inactive"
- Compound: "COc1ccc(C)cc1N"
  outcome: "inactive"

Kindly note the recorded outcome for `OCc1cccc(Oc2ccccc2)c1` , which is inactive

Kindly note the recorded outcome for `CCOCCOCCOCCO` , which is inactive

====

# Assay Target: Luciferin 4-monooxygenase (Photinus pyralis)
# Assay Method Text: qHTS assay to identify small molecule inhibitors of firefly luciferase (AID 1224835); note: nearly all actives have a fitted effect of over 25% in size
# Assay Conditions: purified P. pyralis luciferase, luminescence inhibition; series mostly up to 115 µM
Records with an inconclusive call do not appear. Activity calls are given as the source filed them. Calls follow the shape of the dose curve; as a rule, active = well fitted inhibition curve with a large enough effect in the repeat runs; inconclusive = weak or mixed curves; inactive = flat fitted curve, though single readings scatter.
// one of active, inactive, no free text

- Compound: "O=C(O)/C=C/C(=O)O"
  Label Value: "inactive"
- Compound: "C[C@]12CC[C@@H]3c4ccc(O)cc4CC[C@H]3[C@@H]1C[C@@H](O)[C@@H]2O"
  Label Value: "inactive"
- Compound: "C=CC[N+](C)(C)CC=C"
  Label Value: "inactive"
- Compound: "C=CC(C)CCCC(C)(C)O (stereo not given)"
  Label Value: "inactive"
- Compound: "N#Cc1ccccc1"
  Label Value: "inactive"

stdin: Assay outcome for `C=CC(=O)OCCC(=O)O` : what was it?
stdout: inactive

stdin: Assay outcome for CCCCC(C=O)CC (stereo not given) : what was it?
stdout: inactive

stdin: Assay outcome for `CC(C)OC(=O)COc1ccc(Cl)cc1Cl` : what was it?
stdout: active

stdin: Assay outcome for `O=C1CCCC1` : what was it?
stdout: inactive

stdin: Assay outcome for `NC(=S)NNC(N)=S` : what was it?
stdout: inactive

stdin: Assay outcome for `CC(=O)CCC=C(C)C` : what was it?
stdout: inactive

stdin: Assay outcome for `CCCCCCCCCCCCCCCCO` : what was it?
stdout: inactive

stdin: Assay outcome for `CCCCCCCC=O` : what was it?
stdout: inactive

stdin: Assay outcome for `CCCCCCO` : what was it?
stdout: inactive

stdin: Assay outcome for `C[C@]12CCC(=O)C=C1CC[C@@H]1[C@@H]2[C@@H](O)C[C@@]2(C)[C@H]1CC[C@]2(O)C(=O)CO` : what was it?
stdout: inactive

====

# Assay Method Text: qHTS assay to identify small molecule agonists of the estrogen receptor beta (ER-beta) signaling pathway - cell viability counter screen (AID 1259380); note: nearly all actives have a fitted effect of over 30% in size
# Assay Conditions: ER-beta-bla HEK293T viability, CellTiter-Glo luminescence, 16 h; series mostly up to 92.4 µM
Inconclusive results are not listed. Activity calls are given as the source filed them. Calls follow the shape of the dose curve; as a rule, active = well fitted cell-killing curve with a large enough effect in the repeat runs; inconclusive = weak or mixed curves, or effect the other way; inactive = flat fitted curve, though single readings scatter.
Reported Metric: outcome

Past entries and their recorded results:
- Molecule: "CC(C)(C)c1cc(Cc2cc(C(C)(C)C)c(O)c(C(C)(C)C)c2)cc(C(C)(C)C)c1O"
  Reported Metric: "outcome"
  Observed: "inactive"
- Molecule: "CC(C)OC(=O)COc1ccc(Cl)cc1Cl"
  Reported Metric: "outcome"
  Observed: "inactive"
- Molecule: "CCOC(=O)n1ccn(C)c1=S"
  Reported Metric: "outcome"
  Observed: "inactive"
- Molecule: "CC(=O)OCc1ccco1"
  Reported Metric: "outcome"
  Observed: "inactive"

Kindly note the recorded outcome for `CCCCCCCO` , which is inactive

Kindly note the recorded outcome for `CC(C)c1cccc(C(C)C)c1` , which is inactive

Kindly note the recorded outcome for `COc1ccc(OC)cc1` , which is inactive

Kindly note the recorded outcome for `CCCCOC(=O)c1ccc(N)cc1` , which is inactive

Kindly note the recorded outcome for CC1(C)CC(N)CC(C)(CN)C1 (stereo unspecified) , which is inactive
